- assay info: self-splicing fitness, log relative to wild type (ln ratio); higher = more splicing; Tetrahymena group I intron in knt gene, E. coli kanamycin selection, DiMSum; sequences stand for … in CUCUCU…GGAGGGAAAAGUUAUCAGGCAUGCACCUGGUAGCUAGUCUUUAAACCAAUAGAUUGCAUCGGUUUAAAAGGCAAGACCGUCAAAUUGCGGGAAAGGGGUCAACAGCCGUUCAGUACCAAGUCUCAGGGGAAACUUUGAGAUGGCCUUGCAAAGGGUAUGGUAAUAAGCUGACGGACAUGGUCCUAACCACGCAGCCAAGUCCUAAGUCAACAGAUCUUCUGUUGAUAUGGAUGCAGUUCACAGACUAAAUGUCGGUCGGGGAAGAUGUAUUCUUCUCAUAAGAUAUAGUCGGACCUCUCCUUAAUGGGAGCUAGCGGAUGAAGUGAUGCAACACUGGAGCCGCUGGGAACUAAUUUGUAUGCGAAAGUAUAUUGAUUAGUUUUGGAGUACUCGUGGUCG;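 note: selection with 25 µg/mL kanamycin versus none on LB agar overnight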
- measurement setup: 37 °C
Tick Met if self-splicing fitness (ln) is -2 or greater. Tick Not met if self-splicing fitness (ln) is less than -2.

{"residue string": "UGGGAGCAAUAUUACGUUCG", "cat": "Met"}
{"residue string": "CCUCAGCAAUAUUACGGAGA", "cat": "Met"}
{"residue string": "ACAAAGCAAUAUUACGACGC", "cat": "Met"}
{"residue string": "CGAAAGCAAUAUUACGGUGG", "cat": "Met"}
{"residue string": "GUCUAGCAAUAUUACGAAGU", "cat": "Met"}
{"residue string": "AUUGAGCAAUAUUACGUACU", "cat": "Not met"}
{"residue string": "UUCCAGCAAUAUUACGAACC", "cat": "Met"}
{"residue string": "GACCAGCAAUAUUACGCCCU", "cat": "Met"}
{"residue string": "UAUCAGCAAUAUUACGCGGU", "cat": "Not met"}
{"residue string": "AGCCAGCAAUAUUACGCCCU", "cat": "Met"}
{"residue string": "CACCAGCAAUAUUACGUGCU", "cat": "Not met"}
{"residue string": "UUUAAGCAAUAUUACGUGAU", "cat": "Met"}
{"residue string": "UAUAAGCAAUAUUACGUUGA", "cat": "Met"}
{"residue string": "CCAUAGCAAUAUUACGUUGC", "cat": "Not met"}
{"residue string": "CCUCAGCAAUAUUACGAGUC", "cat": "Not met"}
{"residue string": "UCACAGCAAUAUUACGAGAU", "cat": "Not met"}
{"residue string": "CCUGAGCAAUAUUACGCGUG", "cat": "Not met"}

---

- assay info: self-splicing fitness, log relative to wild type (ln ratio); higher = more splicing; Tetrahymena group I intron in knt gene, E. coli kanamycin selection, DiMSum; sequences stand for … in CUCUCU…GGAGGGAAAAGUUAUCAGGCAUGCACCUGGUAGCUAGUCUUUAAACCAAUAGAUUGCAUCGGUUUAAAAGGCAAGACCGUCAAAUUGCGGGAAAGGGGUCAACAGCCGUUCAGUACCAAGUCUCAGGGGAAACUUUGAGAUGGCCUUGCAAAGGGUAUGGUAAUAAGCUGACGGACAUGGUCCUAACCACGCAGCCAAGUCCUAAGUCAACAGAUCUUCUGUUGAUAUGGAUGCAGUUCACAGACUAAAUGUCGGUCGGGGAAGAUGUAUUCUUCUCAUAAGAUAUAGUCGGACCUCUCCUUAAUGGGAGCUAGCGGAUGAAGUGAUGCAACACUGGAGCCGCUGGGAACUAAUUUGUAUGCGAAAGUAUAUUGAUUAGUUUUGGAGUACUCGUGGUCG
- measurement setup: 30 °C
// reported self-splicing fitness (ln) per item

{"residue string": "UGGAAGCAAUAUUACGUAAC", "self-splicing fitness (ln)": -2.91}
{"residue string": "GUUUAGCAAUAUUACGCACG", "self-splicing fitness (ln)": -2.48}
{"residue string": "ACGAAGCAAUAUUACGUGCU", "self-splicing fitness (ln)": -2.96}
{"residue string": "UUAGAGCAAUAUUACGCUAG", "self-splicing fitness (ln)": -0.574}
{"residue string": "UGGAAGCAAUAUUACGGUCC", "self-splicing fitness (ln)": -2.67}
{"residue string": "GCCCAGCAAUAUUACGUCUG", "self-splicing fitness (ln)": -3.86}
{"residue string": "UACUAGCAAUAUUACGGGGC", "self-splicing fitness (ln)": -3.02}
{"residue string": "AUUGAGCAAUAUUACGAGCC", "self-splicing fitness (ln)": -3.44}
{"residue string": "CUUGAGCAAUAUUACGAGGU", "self-splicing fitness (ln)": -2.39}
{"residue string": "CAAAAGCAAUAUUACGCGAA", "self-splicing fitness (ln)": -3.36}
{"residue string": "GCCAAGCAAUAUUACGCUCC", "self-splicing fitness (ln)": -0.474}
{"residue string": "UUUAAGCAAUAUUACGCUUC", "self-splicing fitness (ln)": -2.24}
{"residue string": "GCAAAGCAAUAUUACGCUAU", "self-splicing fitness (ln)": -2.57}
{"residue string": "GGAAAGCAAUAUUACGACGC", "self-splicing fitness (ln)": -0.197}
{"residue string": "AGUAAGCAAUAUUACGACAU", "self-splicing fitness (ln)": -0.346}
{"residue string": "GAUCAGCAAUAUUACGGAAG", "self-splicing fitness (ln)": -2.38}

---

- assay info: self-splicing fitness, log relative to wild type (ln ratio); higher = more splicing; Tetrahymena group I intron in knt gene, E. coli kanamycin selection, DiMSum; sequences stand for … in CUCUCU…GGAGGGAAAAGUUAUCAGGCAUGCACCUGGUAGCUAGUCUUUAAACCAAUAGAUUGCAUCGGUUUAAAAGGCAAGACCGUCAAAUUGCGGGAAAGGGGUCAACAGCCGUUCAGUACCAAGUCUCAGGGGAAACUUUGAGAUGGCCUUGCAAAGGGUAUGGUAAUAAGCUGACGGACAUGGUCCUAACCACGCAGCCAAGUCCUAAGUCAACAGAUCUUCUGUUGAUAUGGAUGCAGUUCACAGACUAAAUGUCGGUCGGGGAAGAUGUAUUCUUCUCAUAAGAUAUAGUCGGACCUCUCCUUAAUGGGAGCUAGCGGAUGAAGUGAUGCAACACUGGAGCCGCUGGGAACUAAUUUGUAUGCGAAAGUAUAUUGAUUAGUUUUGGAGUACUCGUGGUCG
- measurement setup: 30 °C
Class field: derived from self-splicing fitness (ln); ranges interval 1 (below -3), interval 2 (-3 to below -2), interval 3 (-2 or more)

{"residue string": "ACCUAGCAAUAUUACGCUGA", "cat": "interval 3"}
{"residue string": "ACUAAGCAAUAUUACGGGUC", "cat": "interval 1"}
{"residue string": "UUGAAGCAAUAUUACGAUGC", "cat": "interval 1"}
{"residue string": "ACAUAGCAAUAUUACGAAAG", "cat": "interval 1"}
{"residue string": "GCAGAGCAAUAUUACGCGCG", "cat": "interval 2"}
{"residue string": "AGUUAGCAAUAUUACGCGAA", "cat": "interval 2"}
{"residue string": "CUUCAGCAAUAUUACGUCCA", "cat": "interval 2"}
{"residue string": "AUGUAGCAAUAUUACGUCGU", "cat": "interval 1"}
{"residue string": "CGCUAGCAAUAUUACGUUUC", "cat": "interval 2"}
{"residue string": "AAUUAGCAAUAUUACGCAGC", "cat": "interval 1"}
{"residue string": "UACCAGCAAUAUUACGAUCU", "cat": "interval 3"}
{"residue string": "ACUGAGCAAUAUUACGCAAG", "cat": "interval 2"}
{"residue string": "GUGAAGCAAUAUUACGACCC", "cat": "interval 3"}

---

// reported self-splicing fitness (ln) per item
- assay info: self-splicing fitness, log relative to wild type (ln ratio); higher = more splicing; Tetrahymena group I intron in knt gene, E. coli kanamycin selection, DiMSum; sequences stand for … in CUCUCU…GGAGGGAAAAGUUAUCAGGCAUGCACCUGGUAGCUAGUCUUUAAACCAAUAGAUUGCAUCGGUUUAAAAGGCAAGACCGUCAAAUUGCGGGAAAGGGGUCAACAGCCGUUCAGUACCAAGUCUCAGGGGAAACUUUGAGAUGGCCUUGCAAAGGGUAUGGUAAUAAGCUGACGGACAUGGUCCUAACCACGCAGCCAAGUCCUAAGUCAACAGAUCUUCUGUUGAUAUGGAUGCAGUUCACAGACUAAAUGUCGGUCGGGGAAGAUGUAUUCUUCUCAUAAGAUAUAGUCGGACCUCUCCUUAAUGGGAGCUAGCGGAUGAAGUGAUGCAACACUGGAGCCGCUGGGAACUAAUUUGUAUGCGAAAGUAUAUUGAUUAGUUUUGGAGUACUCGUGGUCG
- measurement setup: 37 °C

{"residue string": "GACCAGCAAUAUUACGGCCC", "self-splicing fitness (ln)": -1.98}
{"residue string": "UGAUAGCAAUAUUACGUCCU", "self-splicing fitness (ln)": 0.376}
{"residue string": "GCGGAGCAAUAUUACGACCA", "self-splicing fitness (ln)": -1.68}
{"residue string": "UCGUAGCAAUAUUACGUGCC", "self-splicing fitness (ln)": -1.13}
{"residue string": "GACUAGCAAUAUUACGGAUA", "self-splicing fitness (ln)": -0.349}
{"residue string": "UCGAAGCAAUAUUACGGUCG", "self-splicing fitness (ln)": 0.0856}
{"residue string": "AAAUAGCAAUAUUACGCUAC", "self-splicing fitness (ln)": -1.68}
{"residue string": "UUCGAGCAAUAUUACGGGAA", "self-splicing fitness (ln)": -0.981}
{"residue string": "AUGGAGCAAUAUUACGUCCC", "self-splicing fitness (ln)": -0.013}
{"residue string": "GUACAGCAAUAUUACGAACG", "self-splicing fitness (ln)": -1.22}
{"residue string": "CCAGAGCAAUAUUACGUCCU", "self-splicing fitness (ln)": -2.48}
{"residue string": "CAUAAGCAAUAUUACGCAGG", "self-splicing fitness (ln)": -1.22}
{"residue string": "GCAAAGCAAUAUUACGUCGU", "self-splicing fitness (ln)": -2.27}
{"residue string": "UGGAAGCAAUAUUACGGCAU", "self-splicing fitness (ln)": -1.13}
{"residue string": "AAGUAGCAAUAUUACGCUCG", "self-splicing fitness (ln)": -0.234}
{"residue string": "AUAGAGCAAUAUUACGCAUA", "self-splicing fitness (ln)": -0.513}
